src = ChEMBL document CHEMBL4406807

- Method Description: Microsomal stability in dog liver microsomes assessed as compound remaining at 100 ug/ml in presence of NADPH measured at 1.5 hrs by LC/MS analysis
- Type: ADME, Canis lupus familiaris, Microsome
- Protocol Conditions: read-out: Stability
Property Measured: remaining at 1.5 h, 100 ug/ml (%)
Give bare numbers, in %.

Value sought for every listed compound: remaining at 1.5 h, 100 ug/ml.
1. Cn1ncc(Cl)c1-c1cc(C(=O)N[C@@H]2CNCC[C@H]2c2ccc(F)c(F)c2)oc1Cl.O=C(O)C(O)C(O)C(=O)O
2. Cn1ncc(Cl)c1-c1cc(C(=O)N[C@@H]2CN[C@H](CCO)C[C@H]2c2ccc(F)c(F)c2)oc1Cl
3. CNC(=O)C[C@@H]1C[C@@H](c2ccc(F)c(F)c2)[C@H](NC(=O)c2cc(-c3c(Cl)cnn3C)c(Cl)o2)CN1

1. 86.9
2. 96
3. 96

====

- Tgt: RAC-alpha serine/threonine-protein kinase (Homo sapiens, UniProt P31749)
- Sequence (P31749 whole entry): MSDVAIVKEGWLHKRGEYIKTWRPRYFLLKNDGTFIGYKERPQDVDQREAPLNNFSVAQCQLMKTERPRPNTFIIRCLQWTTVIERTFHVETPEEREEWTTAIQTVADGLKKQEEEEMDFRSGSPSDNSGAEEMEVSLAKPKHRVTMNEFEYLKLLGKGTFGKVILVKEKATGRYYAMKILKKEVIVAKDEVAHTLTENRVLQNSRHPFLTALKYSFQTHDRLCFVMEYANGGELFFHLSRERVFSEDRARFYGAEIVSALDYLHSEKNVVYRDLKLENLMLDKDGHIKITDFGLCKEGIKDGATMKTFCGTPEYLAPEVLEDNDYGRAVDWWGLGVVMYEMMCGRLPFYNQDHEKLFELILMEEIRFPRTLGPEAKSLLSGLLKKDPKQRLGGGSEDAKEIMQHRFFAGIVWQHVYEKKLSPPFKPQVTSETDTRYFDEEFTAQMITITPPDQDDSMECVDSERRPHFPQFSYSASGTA
Property Measured: pIC50
One number for each entry, as −log10 of the molar value.

Solved entries (count: 5):
Cn1ncc(Cl)c1-c1oc(C(=O)N[C@@H]2CNCC[C@H]2c2ccc(Cl)cc2)cc1Br has a reported pIC50 of 7.40

CC(=O)OCC[C@@H]1C[C@@H](c2ccc(F)c(F)c2)[C@H](NC(=O)c2cc(-c3c(Cl)cnn3C)c(Cl)o2)CN1 has a reported pIC50 of 8.47

Cn1ncc(Cl)c1-c1cc(C(=O)N[C@@H]2CN[C@H](CCCO)C[C@H]2c2ccc(Cl)c(Cl)c2)oc1Cl has a reported pIC50 of 8.59

Cn1ncc(Cl)c1-c1cc(C(=O)NC2CNCCC2c2ccc(Cl)cc2)oc1Cl (stereo not drawn) has a reported pIC50 of 7.76

Cn1ncc(Cl)c1-c1cc(C(=O)N[C@@H]2CN[C@H](CC(N)=O)C[C@H]2c2ccc(Cl)c(Cl)c2)oc1Cl has a reported pIC50 of 8.49

Value sought for every listed molecule: pIC50.
1. Cn1ncc(Cl)c1-c1cc(C(=O)N[C@@H]2CNCC[C@H]2c2ccc(Cl)cc2)sc1Cl
2. Cn1nccc1-c1ccc(C(=O)N[C@@H]2CNCC[C@H]2c2cccc(F)c2)nc1

1: 6.35; 2: 7.12

====

- Tgt: RAC-alpha serine/threonine-protein kinase (Homo sapiens, UniProt P31749)
Please use Satisfied for IC50 under 60 nM and Not satisfied for everything else, ties included.

For Cn1ncc(Br)c1-c1oc(C(=O)N[C@@H]2CNCC[C@H]2c2ccc(Cl)cc2)cc1Br , is the recorded IC50 below the cut-off of 60 nM?
Satisfied

For Cn1ncc(Br)c1-c1cc(C(=O)N[C@@H]2CNCC[C@H]2c2ccc(Cl)cc2)n(C)c1Br , is the recorded IC50 below the cut-off of 60 nM?
Not satisfied

For Cn1nccc1-c1coc(C(=O)NC2CNCCC2c2ccccc2)c1 (centres undefined) , is the recorded IC50 below the cut-off of 60 nM?
Not satisfied

For Cn1nccc1-c1ccc(C(=O)N[C@@H]2CNCC[C@H]2c2ccc(F)c(F)c2)cn1 , is the recorded IC50 below the cut-off of 60 nM?
Satisfied

For Cn1ncc(Cl)c1-c1ccc(C(=O)N[C@@H]2CNCC[C@H]2c2ccc(Cl)cc2)o1 , is the recorded IC50 below the cut-off of 60 nM?
Satisfied

Further cases:
For Cn1ncc(Cl)c1-c1cc(C(=O)N[C@@H]2CN[C@H](CC(=O)O)C[C@H]2c2ccc(Cl)c(Cl)c2)oc1Cl , is the recorded IC50 below the cut-off of 60 nM?
Satisfied

For Cn1ncc(Cl)c1-c1cc(C(=O)N[C@H]2CNCC[C@@H]2c2ccc(C(F)(F)F)cc2)oc1Cl , is the recorded IC50 below the cut-off of 60 nM?
Not satisfied

For Cn1ncc(Cl)c1-c1cc(C(=O)NC2CNCCC2c2ccc(C(F)(F)F)cc2)oc1Cl (centres undefined) , is the recorded IC50 below the cut-off of 60 nM?
Satisfied

For O=C(N[C@@H]1CNCC[C@H]1c1ccc(Cl)cc1)c1ccc(-c2cn[nH]c2)o1 , is the recorded IC50 below the cut-off of 60 nM?
Satisfied
